- Target Under Test: RNA-directed RNA polymerase (Hepacivirus hominis, UniProt O39930)
- Sequence (O39930 whole entry): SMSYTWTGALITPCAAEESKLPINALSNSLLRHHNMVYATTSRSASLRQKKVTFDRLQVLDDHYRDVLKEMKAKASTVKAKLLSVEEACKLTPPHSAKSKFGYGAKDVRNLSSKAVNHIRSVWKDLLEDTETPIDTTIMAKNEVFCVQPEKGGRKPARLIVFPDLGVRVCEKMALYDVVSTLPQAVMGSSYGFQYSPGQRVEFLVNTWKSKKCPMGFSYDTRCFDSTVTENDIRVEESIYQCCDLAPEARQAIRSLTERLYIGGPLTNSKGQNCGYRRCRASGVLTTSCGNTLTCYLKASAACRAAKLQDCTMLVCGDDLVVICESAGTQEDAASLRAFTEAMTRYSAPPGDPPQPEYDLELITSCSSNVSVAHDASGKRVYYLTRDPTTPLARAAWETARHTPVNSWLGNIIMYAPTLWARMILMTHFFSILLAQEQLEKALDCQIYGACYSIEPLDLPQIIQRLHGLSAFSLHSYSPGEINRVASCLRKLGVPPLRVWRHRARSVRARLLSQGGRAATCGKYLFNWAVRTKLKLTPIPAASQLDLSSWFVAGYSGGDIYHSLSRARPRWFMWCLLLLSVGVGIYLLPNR
- Protocol Summary: Inhibitory potency of compound in presence of Mg2+ ion against NS5B HCV polymerase
Measurement Label: pIC50
For clarity, pIC50 is expressed as the negative log10 of concentration in mol/L.

[
  {
    "Smiles Entry": "CCOCc1cc(=O)c(O)c(C(=O)O)o1",
    "pIC50": 4.79
  }
]

Tested on RNA-directed RNA polymerase (Hepacivirus hominis, UniProt O39930): "O=C(O)c1oc2ccccc2c(=O)c1O" . Observed pIC50: 4.64

Tested on RNA-directed RNA polymerase (Hepacivirus hominis, UniProt O39930): "CCOC(=O)c1cc(=O)c(O)c(C(=O)O)o1" . Observed pIC50: 5.65

###

- Target Under Test: RNA-directed RNA polymerase (Hepacivirus hominis, UniProt O39930)
- Protocol Summary: Inhibitory potency against NS5B HCV polymerase
Measurement Label: pIC50
For clarity, pIC50 is expressed as the negative log10 of concentration in mol/L.

Worked examples, 4 molecules total:
[
  {
    "Smiles Entry": "CCNC(=O)c1cc(=O)c(O)c(C(=O)O)o1",
    "pIC50": 4.62
  },
  {
    "Smiles Entry": "CCOC(=O)c1cc(=O)c(O)c(C(=O)O)o1",
    "pIC50": 5.65
  },
  {
    "Smiles Entry": "O=C(O)c1occc(=O)c1O",
    "pIC50": 4.29
  },
  {
    "Smiles Entry": "CCOCc1cc(=O)c(O)c(C(=O)O)o1",
    "pIC50": 4.79
  }
]

pIC50 measured on "CC(C)(C)OC(=O)c1cc(=O)c(O)c(C(=O)O)o1" = 4.44

###

- Target Under Test: RNA-directed RNA polymerase (Hepacivirus hominis, UniProt O39930)
- Protocol Summary: Inhibitory potency of compound in presence of Mn2+ ion against NS5B HCV polymerase
pIC50: −log10 of the molar value.
Respond with Yes for pIC50 values of 5 and above, No for values below.

Textbook exercise: given the entry "CCOC(=O)c1cc(=O)c(O)c(C(=O)OCC)o1" , state whether its pIC50 is greater than or equal to 5.
Yes

###

Recorded IC50 values for a group of compounds are listed next.
- Target Under Test: RNA-directed RNA polymerase (Hepacivirus hominis)
- Protocol Summary: Inhibitory potency of compound in presence of Mn2+ ion against NS5B HCV polymerase
Value expressed in nM; do not type the unit.

Worked examples, 3 compounds total:
[
  {
    "Smiles Entry": "O=C(O)c1oc2ccccc2c(=O)c1O",
    "Unit Label": "nM",
    "IC50": 1900
  },
  {
    "Smiles Entry": "CCOC(=O)c1cc(=O)c(O)c(C(=O)O)o1",
    "Unit Label": "nM",
    "IC50": 165
  },
  {
    "Smiles Entry": "CCOCc1cc(=O)c(O)c(C(=O)O)o1",
    "Unit Label": "nM",
    "IC50": 800
  }
]

Next compound, IC50 to be filled in.
IC50 measured on "O=C(O)c1cc(=O)c(O)c(C(=O)O)o1" = 18000
